- SUBJECT OF TEST: Apelin receptor (Homo sapiens) (UniProt P35414)
- Sequence (P35414 whole entry, looked up): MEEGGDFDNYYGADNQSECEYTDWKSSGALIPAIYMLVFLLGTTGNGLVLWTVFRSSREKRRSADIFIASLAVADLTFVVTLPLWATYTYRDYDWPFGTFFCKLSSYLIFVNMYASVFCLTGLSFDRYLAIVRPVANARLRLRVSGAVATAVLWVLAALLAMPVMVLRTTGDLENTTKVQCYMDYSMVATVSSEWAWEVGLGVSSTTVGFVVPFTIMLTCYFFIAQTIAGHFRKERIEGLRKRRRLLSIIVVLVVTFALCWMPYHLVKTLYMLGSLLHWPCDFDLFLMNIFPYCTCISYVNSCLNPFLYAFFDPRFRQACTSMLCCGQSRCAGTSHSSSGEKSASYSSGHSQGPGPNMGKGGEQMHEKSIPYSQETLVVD
- ASSAY PROCEDURE: APJ activation via beta-arrestin recruitment – CHO-K1 cells, PathHunter beta-arrestin, luminescence, primary screen (AID 2520);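 also: 0% = DMSO alone and 100% = apelin-13 at 10 nM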
- APPLIED CONDITIONS: at 20 µM, active compounds read high, 0% DMSO wells, 100% apelin
About 350 (0.11%) of roughly 330,000 compounds were called active. Only a selection was taken, and actives are over-represented in it overall.
Listing of recorded activation by entry.
Form entry: value (%) — number only.

O=C(Nc1ccc(Cl)cc1)c1cc2nc(C3CC3)cc(C(F)(F)F)n2n1	-4.3

Lab note: molecule CCOC(=O)CSc1nnc(NC(=O)C2CC(=O)N(c3ccc(F)cc3)C2)s1 (configuration not stated) tested on Apelin receptor (Homo sapiens) (UniProt P35414); recorded activation was -4.52

Lab note: molecule `O=C(O)c1cccc2c1C(=O)N(C1CCCCC1)C2` tested on Apelin receptor (Homo sapiens) (UniProt P35414); recorded activation was -1.33

Lab note: molecule CC(NC(=O)c1ccc(Cl)cc1)C(=O)N1CCCCC1 (configuration not stated) tested on Apelin receptor (Homo sapiens) (UniProt P35414); recorded activation was 0.246

Lab note: molecule `COC(=O)c1ccc(COc2ccc(/C=N/NC(=O)C(=O)Nc3ccc(OC)cc3)cc2OC)o1` tested on Apelin receptor (Homo sapiens) (UniProt P35414); recorded activation was -4.37

Lab note: molecule `O=C(N[C@@H](Cc1c[nH]c2ccccc12)C(=O)O)OCC1c2ccccc2-c2ccccc21` tested on Apelin receptor (Homo sapiens) (UniProt P35414); recorded activation was 7.88

Lab note: molecule `CN1CCC(=O)N([C@H](CO)Cc2ccccc2)CC1` tested on Apelin receptor (Homo sapiens) (UniProt P35414); recorded activation was -1.16

Lab note: molecule O=C(c1ccc(-c2ccccc2)cc1)C1CCCN(C(=O)c2cncs2)C1 (configuration not stated) tested on Apelin receptor (Homo sapiens) (UniProt P35414); recorded activation was 1.31

Lab note: molecule O=C(Nc1ccc(F)c([N+](=O)[O-])c1)C1CC(=O)N(Cc2ccccc2)C1 (configuration not stated) tested on Apelin receptor (Homo sapiens) (UniProt P35414); recorded activation was -2.4

Lab note: molecule `CC(=O)Nc1ccc(Sc2ccccc2C(=O)N2CCCC2)cn1` tested on Apelin receptor (Homo sapiens) (UniProt P35414); recorded activation was -0.519

Lab note: molecule CC1(C(=O)NNC(=S)NCC2CCCO2)CC1(Cl)Cl (configuration not stated) tested on Apelin receptor (Homo sapiens) (UniProt P35414); recorded activation was -1.22

Lab note: molecule `Cc1ccc(C(=O)O)cc1-c1ccc(/C=C2\SC(=O)N(CC(=O)Nc3ccc4c(c3)OCO4)C2=O)o1` tested on Apelin receptor (Homo sapiens) (UniProt P35414); recorded activation was 0.103

Lab note: molecule `COc1cccc(N(CC(=O)NC2CCCC2)C(=O)Cn2nnc(-c3ccc(C)o3)n2)c1` tested on Apelin receptor (Homo sapiens) (UniProt P35414); recorded activation was 2.12

Lab note: molecule `CN(CC(=O)NCCc1ccc(S(N)(=O)=O)cc1)CC(=O)Nc1ccc(Cl)cc1` tested on Apelin receptor (Homo sapiens) (UniProt P35414); recorded activation was -2.04

Lab note: molecule `CC1(C)NC(=O)N(CC(=O)N2CCN(S(=O)(=O)c3ccccc3F)CC2)C1=O` tested on Apelin receptor (Homo sapiens) (UniProt P35414); recorded activation was -2.41

Lab note: molecule `CSc1ncc(C(=O)Nc2ccc(C)cc2C)c(C)n1` tested on Apelin receptor (Homo sapiens) (UniProt P35414); recorded activation was -0.333

Lab note: molecule `COCCn1nnnc1CN1CCC(NC(=O)Nc2cccc(OC)c2)CC1` tested on Apelin receptor (Homo sapiens) (UniProt P35414); recorded activation was -0.645

Lab note: molecule COc1ccccc1N(CC(=O)NC1CCCC1)C(=O)C1(C)CC(=O)N=C2C=CC(C)=CN21 (configuration not stated) tested on Apelin receptor (Homo sapiens) (UniProt P35414); recorded activation was -0.286

Lab note: molecule `COc1ccc(S(=O)(=O)Nc2ccc(F)cc2)c(C)c1C` tested on Apelin receptor (Homo sapiens) (UniProt P35414); recorded activation was -0.449

Lab note: molecule `COc1cc(NC(=O)C2=C(C)OCCS2)c(Cl)cc1C(=O)NCCN1CCN(C)CC1` tested on Apelin receptor (Homo sapiens) (UniProt P35414); recorded activation was 18.9

Lab note: molecule `CCOC(=O)c1sc(=NC(=O)/C=C/c2cccs2)n(C)c1C` tested on Apelin receptor (Homo sapiens) (UniProt P35414); recorded activation was -1.39

Lab note: molecule `Cc1[nH]c(C)c(S(=O)(=O)N2CCN(c3cccc(C(F)(F)F)c3)CC2)c1C(=O)N1CCCC1` tested on Apelin receptor (Homo sapiens) (UniProt P35414); recorded activation was 0.662
